B1: Tyrosine-protein kinase Lck, residues 63 to 120; numbered along this chain, P06239 (parent)
chain: DNLVIALHSYEPSHDGDLGFEKGEQLRILEQSGEWWKAQSLTTGQEGFIPFNFVAKAN

- Variants of: B1
- Assay Explanation: abundance fitness (aPCA) (normalised: wild type 0, dead -1); higher = more abundant; growth selection in yeast, the domain comes from the species named
- Measurement Conditions: Homo sapiens
Assay Readout: abundance fitness

[
  {
    "Variant Spec": "S32I",
    "Assay Readout": "abundance fitness",
    "Observed Measurement": -0.226
  },
  {
    "Variant Spec": "G47C",
    "Assay Readout": "abundance fitness",
    "Observed Measurement": -1.07
  },
  {
    "Variant Spec": "N2V",
    "Assay Readout": "abundance fitness",
    "Observed Measurement": -0.851
  },
  {
    "Variant Spec": "L26K",
    "Assay Readout": "abundance fitness",
    "Observed Measurement": -0.919
  },
  {
    "Variant Spec": "L3S",
    "Assay Readout": "abundance fitness",
    "Observed Measurement": -0.343
  },
  {
    "Variant Spec": "L3V",
    "Assay Readout": "abundance fitness",
    "Observed Measurement": -0.212
  },
  {
    "Variant Spec": "S40Y",
    "Assay Readout": "abundance fitness",
    "Observed Measurement": -0.862
  },
  {
    "Variant Spec": "K56I",
    "Assay Readout": "abundance fitness",
    "Observed Measurement": -0.233
  },
  {
    "Variant Spec": "I28K",
    "Assay Readout": "abundance fitness",
    "Observed Measurement": -0.903
  },
  {
    "Variant Spec": "E34A",
    "Assay Readout": "abundance fitness",
    "Observed Measurement": -0.065
  },
  {
    "Variant Spec": "L7A",
    "Assay Readout": "abundance fitness",
    "Observed Measurement": -0.249
  }
]
